Data credit: patent US20070249560A1

PROTOCOL_SUMMARY: Spreading of 10 μL droplet on polystyrene Petri dishes
Type: physicochemical
CONDITION_INFO: 0.5% weight surfactant, 30 seconds
READOUT_KIND: Spread Diameter (mm)

What value of Spread Diameter (mm) has been reported for the following compound? C[Si](C)(C)CC[Si](C)(C)CCCOCCOCCOCCOCCOCCOCCOCCOCCOCCOCCOCCO
7

Do the same for C[Si](C)(C)C[Si](C)(C)CCCOCCOCCOCCOCCO please
47

a: C[Si](C)(C)CC[Si](C)(C)CCCOCCOCCOCCOCCO
b: C[Si](C)(C)C[Si](C)(C)CCCOCCOCCOCCOCCOCCOCCOCCOCCOCCOCCOCCO
Choose between a and b : whose measured Spread Diameter (mm) value is numerically larger? Answer format: the label of the selected item.
a
(a: 49 mm, b: 7 mm)
